MEASURED TARGET: HLA-A*31:01
TEST DESCRIPTION: IEDB peptide-MHC binding, purified MHC/direct/fluorescence; filed as Kd, often an IC50 or EC50 that approximates it; bounds were set here for any values at or beyond the usual limits of such assays
CONDITION PARAMETERS: source organism: Brucella abortus 2308
pKd: −log10 of the molar value.
PROPERTY NAME: pKd

Query: Entry under review: YWMGGTTYF . Reported pKd?
Reply: ≤ 4.70

---

MEASURED TARGET: HLA-B*58:01
TEST DESCRIPTION: IEDB peptide-MHC binding, purified MHC/direct/fluorescence; filed as Kd, often an IC50 or EC50 that approximates it; bounds were set here for any values at or beyond the usual limits of such assays
CONDITION PARAMETERS: source organism: Yersinia pestis
pKd: −log10 of the molar value.
PROPERTY NAME: pKd

Query: Entry under review: YGIPFPGSL . Reported pKd?
Reply: ≤ 4.70

---

MEASURED TARGET: HLA-B*57:01
TEST DESCRIPTION: IEDB peptide-MHC binding, purified MHC/competitive/fluorescence; filed as Kd, often an IC50 or EC50 that approximates it; bounds were set here for any values at or beyond the usual limits of such assays
CONDITION PARAMETERS: source organism: Mus musculus
pKd: −log10 of the molar value.
PROPERTY NAME: pKd

Query: Entry under review: VLWKSYPLV . Reported pKd?
Reply: ≤ 4.70

---

MEASURED TARGET: HLA-A*24:02
TEST DESCRIPTION: IEDB peptide-MHC binding, purified MHC/competitive/radioactivity; filed as Kd, often an IC50 or EC50 that approximates it; bounds were set here for any values at or beyond the usual limits of such assays
CONDITION PARAMETERS: source organism: Mammarenavirus machupoense
PROPERTY NAME: Kd

Query: Entry under review: LSSGEPHCA . Reported Kd?
Reply: ≥ 77.5 µM

---

MEASURED TARGET: HLA-A*02:01
TEST DESCRIPTION: IEDB peptide-MHC binding, purified MHC/direct/fluorescence; filed as Kd, often an IC50 or EC50 that approximates it; bounds were set here for any values at or beyond the usual limits of such assays
CONDITION PARAMETERS: source organism: Burkholderia mallei
PROPERTY NAME: Kd

Query: Entry under review: ISDSAQNMM . Reported Kd?
Reply: ≥ 20 µM

---

MEASURED TARGET: HLA-A*23:01
TEST DESCRIPTION: IEDB peptide-MHC binding, purified MHC/competitive/radioactivity; filed as Kd, often an IC50 or EC50 that approximates it; bounds were set here for any values at or beyond the usual limits of such assays
CONDITION PARAMETERS: source organism: Mammarenavirus oliverosense
PROPERTY NAME: Kd

Query: Entry under review: ICLSGEGWPY . Reported Kd?
Reply: ≥ 56.8 µM

---

MEASURED TARGET: HLA-B*08:01
TEST DESCRIPTION: IEDB peptide-MHC binding, purified MHC/competitive/radioactivity; filed as Kd, often an IC50 or EC50 that approximates it; bounds were set here for any values at or beyond the usual limits of such assays
CONDITION PARAMETERS: source organism: Hepatitis C virus (isolate 1)
PROPERTY NAME: Kd

Query: Entry under review: HPNIEEVAL . Reported Kd?
Reply: ≥ 36 µM

---

MEASURED TARGET: HLA-B*40:01
TEST DESCRIPTION: IEDB peptide-MHC binding, purified MHC/direct/fluorescence; filed as Kd, often an IC50 or EC50 that approximates it; bounds were set here for any values at or beyond the usual limits of such assays
CONDITION PARAMETERS: source organism: Camelpox virus M-96
PROPERTY NAME: Kd

Here is how some sequences turned out for Kd.
QUERY SEQUENCE	MEASURED TARGET	Kd
FTENGPWMY	HLA-B*40:01	≥ 20 µM
ITMVNSLTY	HLA-B*40:01	≥ 20 µM

# context switch: different sequence, same Kd
Query: Record GLYRLNFRR : what is its Kd with HLA-B*40:01?
Reply: ≥ 20 µM

---

MEASURED TARGET: HLA-B*48:01
TEST DESCRIPTION: IEDB peptide-MHC binding, purified MHC/direct/fluorescence; filed as Kd, often an IC50 or EC50 that approximates it; bounds were set here for any values at or beyond the usual limits of such assays
CONDITION PARAMETERS: source organism: Vibrio vulnificus YJ016
PROPERTY NAME: Kd

Query: Entry under review: IVAQGIAAL . Reported Kd?
Reply: ≥ 20 µM

---

MEASURED TARGET: HLA-B*46:01
TEST DESCRIPTION: IEDB peptide-MHC binding, purified MHC/direct/fluorescence; filed as Kd, often an IC50 or EC50 that approximates it; bounds were set here for any values at or beyond the usual limits of such assays
CONDITION PARAMETERS: source organism: Yellow fever virus
PROPERTY NAME: Kd

Query: Entry under review: VLIEVNPPF . Reported Kd?
Reply: ≥ 20 µM

---

MEASURED TARGET: HLA-A*02:01
TEST DESCRIPTION: IEDB peptide-MHC binding, purified MHC/competitive/fluorescence; filed as Kd, often an IC50 or EC50 that approximates it; bounds were set here for any values at or beyond the usual limits of such assays
CONDITION PARAMETERS: source organism: Bacillus anthracis str. A0488
PROPERTY NAME: Kd (nM)
// return numeric value only (unit: nM, not printed)

Query: Record KLWASFFQG : what is its Kd with HLA-A*02:01?
Reply: 104

---

MEASURED TARGET: HLA-B*39:01
TEST DESCRIPTION: IEDB peptide-MHC binding, purified MHC/competitive/fluorescence; filed as Kd, often an IC50 or EC50 that approximates it; bounds were set here for any values at or beyond the usual limits of such assays
CONDITION PARAMETERS: source organism: Orthohantavirus puumalaense
PROPERTY NAME: Kd

Query: Entry under review: IILKALYML . Reported Kd?
Reply: ≥ 20 µM

---

MEASURED TARGET: HLA-A*01:01
TEST DESCRIPTION: IEDB peptide-MHC binding, purified MHC/direct/fluorescence; filed as Kd, often an IC50 or EC50 that approximates it; bounds were set here for any values at or beyond the usual limits of such assays
CONDITION PARAMETERS: source organism: Vibrio vulnificus
pKd: −log10 of the molar value.
PROPERTY NAME: pKd

Query: Record KVMALPIPH : what is its pKd with HLA-A*01:01?
Reply: ≤ 4.70

---

MEASURED TARGET: HLA-A*31:01
TEST DESCRIPTION: IEDB peptide-MHC binding, purified MHC/competitive/fluorescence; filed as Kd, often an IC50 or EC50 that approximates it; bounds were set here for any values at or beyond the usual limits of such assays
CONDITION PARAMETERS: source organism: Orthohantavirus dobravaense
PROPERTY NAME: Kd

Query: Entry under review: DVNGIRKPK . Reported Kd?
Reply: ≥ 20 µM

---

MEASURED TARGET: HLA-A*11:01
TEST DESCRIPTION: IEDB peptide-MHC binding, purified MHC/competitive/fluorescence; filed as Kd, often an IC50 or EC50 that approximates it; bounds were set here for any values at or beyond the usual limits of such assays
CONDITION PARAMETERS: source organism: Homo sapiens
PROPERTY NAME: Kd

Query: Entry under review: SSSPQPKKK . Reported Kd?
Reply: 554 nM

---

MEASURED TARGET: HLA-B*27:03
TEST DESCRIPTION: IEDB peptide-MHC binding, purified MHC/competitive/fluorescence; filed as Kd, often an IC50 or EC50 that approximates it; bounds were set here for any values at or beyond the usual limits of such assays
CONDITION PARAMETERS: source organism: Vibrio parahaemolyticus K5030
pKd: −log10 of the molar value.
PROPERTY NAME: pKd

Query: Entry under review: AGGWVLWKV . Reported pKd?
Reply: ≤ 4.70

---

MEASURED TARGET: HLA-B*46:01
TEST DESCRIPTION: IEDB peptide-MHC binding, purified MHC/competitive/fluorescence; filed as Kd, often an IC50 or EC50 that approximates it; bounds were set here for any values at or beyond the usual limits of such assays
CONDITION PARAMETERS: source organism: Mycobacterium tuberculosis variant bovis BCG str. Pasteur 1173P2
PROPERTY NAME: Kd (nM)
// return numeric value only (unit: nM, not printed)

Query: Entry under review: VAFYCAGRF . Reported Kd?
Reply: 748

---

MEASURED TARGET: HLA-A*02:01
TEST DESCRIPTION: IEDB peptide-MHC binding, purified MHC/competitive/radioactivity; filed as Kd, often an IC50 or EC50 that approximates it; bounds were set here for any values at or beyond the usual limits of such assays
CONDITION PARAMETERS: source organism: Triticum aestivum
PROPERTY NAME: Kd (nM)
// return numeric value only (unit: nM, not printed)

Query: Entry under review: LQQSTYQLV . Reported Kd?
Reply: 91.3
